Where these numbers come from: paper PMC9947563

- subject.of.test: UniProt:Q99571
- Sequence (Q99571 whole entry): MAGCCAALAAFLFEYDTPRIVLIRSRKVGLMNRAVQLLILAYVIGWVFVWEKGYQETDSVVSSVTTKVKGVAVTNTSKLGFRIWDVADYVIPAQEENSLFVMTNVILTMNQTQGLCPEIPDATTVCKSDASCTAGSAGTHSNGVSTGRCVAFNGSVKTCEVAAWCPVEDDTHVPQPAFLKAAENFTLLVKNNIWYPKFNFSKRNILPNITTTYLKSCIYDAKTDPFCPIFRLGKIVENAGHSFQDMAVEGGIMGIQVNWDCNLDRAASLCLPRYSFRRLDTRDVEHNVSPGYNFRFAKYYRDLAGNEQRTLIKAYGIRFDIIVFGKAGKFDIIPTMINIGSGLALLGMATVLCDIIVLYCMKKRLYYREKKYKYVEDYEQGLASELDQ
- measurement.protocol: ATP-induced calcium influx (Fluo-4) in 1321N1 cells stably expressing human P2X4 wild type
- test.conditions: 1321N1 cells, human P2X4 WT

{"compound": "Nc1ncnc2c1ncn2[C@@H]1O[C@H](COP(=O)(O)OP(=O)(O)OP(=O)(O)O)[C@@H](O)[C@H]1O [ATP]", "EC50": "1260 nM"}

----------
- subject.of.test: rat P2X4 T312I (r4-T312I) (Rattus norvegicus, UniProt P51577, T312I)
- Sequence (P51577 whole entry T312I): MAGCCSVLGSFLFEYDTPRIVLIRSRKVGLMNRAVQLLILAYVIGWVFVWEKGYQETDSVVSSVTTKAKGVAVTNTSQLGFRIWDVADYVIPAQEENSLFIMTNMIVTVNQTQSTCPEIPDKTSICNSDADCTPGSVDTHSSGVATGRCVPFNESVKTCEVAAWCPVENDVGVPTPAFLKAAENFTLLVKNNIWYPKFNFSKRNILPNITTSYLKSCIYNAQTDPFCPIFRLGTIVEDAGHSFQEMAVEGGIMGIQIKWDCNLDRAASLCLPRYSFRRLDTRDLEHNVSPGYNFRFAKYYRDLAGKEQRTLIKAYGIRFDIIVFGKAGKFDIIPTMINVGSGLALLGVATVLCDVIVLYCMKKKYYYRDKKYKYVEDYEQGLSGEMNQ
- measurement.protocol: ATP-induced calcium influx (Fluo-4) in 1321N1 cells stably expressing rat P2X4 T312I
- test.conditions: 1321N1 cells, rat P2X4 T312I

{"molecule": "Nc1ncnc2c1ncn2[C@@H]1O[C@H](COP(=O)(O)OP(=O)(O)OP(=O)(O)O)[C@@H](O)[C@H]1O [ATP]", "EC50": "730 nM"}
